Note to self: these compounds have IC50 reported for Caspase-7 (Homo sapiens) in various publications.
Target: Caspase-7 (Homo sapiens)
Sequence (P55210 whole entry): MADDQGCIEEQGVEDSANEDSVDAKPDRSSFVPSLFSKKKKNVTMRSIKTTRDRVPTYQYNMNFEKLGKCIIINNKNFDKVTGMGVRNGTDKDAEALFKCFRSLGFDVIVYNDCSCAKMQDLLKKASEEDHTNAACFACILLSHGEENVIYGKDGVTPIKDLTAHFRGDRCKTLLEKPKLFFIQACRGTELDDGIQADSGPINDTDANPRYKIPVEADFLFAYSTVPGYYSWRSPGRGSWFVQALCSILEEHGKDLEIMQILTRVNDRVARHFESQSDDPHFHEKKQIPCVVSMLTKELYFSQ
Mark each entry TRUE if its IC50 sits below 40 nM, and FALSE for all others.

API: query returns whether the compound falls strictly under 40 nM in IC50. Query: "COc1ccc(OC)c(CC(=O)N[C@H](C(=O)N[C@@H](CC(=O)O)C(=O)CSCc2ccccc2)C(C)C)c1" FALSE

Does the reported IC50 of the following compound sit strictly below 40 nM? "O=C1C(=O)N(Cc2ccc(OCCF)cc2)c2ccc(S(=O)(=O)N3CC[C@H]3COc3ccccc3)cc21" TRUE

Threshold test, IC50 < 40 nM: "CC(C)(C)[C@@H](NC(=O)c1ccc(N)c(Cl)c1)C(=O)N1CCC[C@H]1C(=O)N[C@H](/C=C/S(C)(=O)=O)CC(=O)O" FALSE

A record lists "O=C1Nc2ccc(S(=O)(=O)N3CCC[C@H]3COc3ccncc3)cc2C1=O" . Is its IC50 below 40 nM? FALSE

# TODO verify IC50 < 40 nM strictly for this compound: "N#CC(C#N)=C1C(=O)N(Cc2ccc(OCCOCCF)cc2)c2ccc(S(=O)(=O)N3CCC[C@H]3COc3ccccc3)cc21" FALSE

Confirm or reject: IC50 of "COC[C@@H]1CCCN1S(=O)(=O)c1ccc2c(c1)C(=O)C(=O)N2Cc1ccc(I)cc1" lies strictly below 40 nM TRUE

# TODO verify IC50 < 40 nM strictly for this compound: "CC[C@H](C)[C@H](NC(=O)[C@H](CCC(N)=O)NC(=O)[C@@H](NC(=O)OCc1ccccc1)C(C)C)C(=O)N[C@H](/C=C/S(C)(=O)=O)CC(=O)O" FALSE

hey, is IC50 for "O=C1C(=O)N(Cc2cn(CCF)nn2)c2ccc(S(=O)(=O)N3CC[C@H]3COc3ccc(F)cc3F)cc21" lower than 40 nM or not? TRUE

In the record for "COc1ccc(OC)c(CC(=O)N[C@H](C(=O)N[C@@H](CC(=O)O)C(=O)CSCc2c(F)cccc2Cl)C(C)C)c1" , is IC50 less than 40 nM? FALSE

Is IC50 strictly under 40 nM for the entry "Cc1ccc(S(=O)(=O)OCCOc2ccc(CN3C(=O)C(=O)c4cc(S(=O)(=O)N5CCC[C@H]5COc5ccccc5)ccc43)cc2)cc1" ? FALSE

Item "COc1ccc(CN2C(=O)C(=O)c3cc(S(=O)(=O)N4CCC[C@H]4COc4ccccc4)ccc32)cc1" : IC50 beneath 40 nM, strictly? TRUE

In the record for O=C(c1csc(C2COc3ccccc3O2)n1)N1CCOCC1 (configuration not stated) , is IC50 less than 40 nM? FALSE

Check if IC50 falls below 40 nM for O=C(Oc1ccccc1)c1csc(C2COc3ccccc3O2)n1 (configuration not stated) . FALSE

Find out if reported IC50 for "O=C1C(=O)N(Cc2ccc(OCCOCCF)cc2)c2ccc(S(=O)(=O)N3CCC[C@H]3COc3ccccc3)cc21" is less than 40 nM TRUE

Lab note: IC50 threshold 40 nM. Does this compound come in strictly under it? Cc1nc(C2COc3ccccc3O2)sc1C(=O)O (configuration not stated) FALSE

# strict comparison: is reported IC50 < 40 nM? input = "O=C1C(=O)N(Cc2ccc(F)cc2)c2ccc(S(=O)(=O)N3CCC[C@H]3COc3ccccc3)cc21" TRUE
